Target: STING cytosolic domain (hSTING CTD lacking CTT3, aa 137-366) (human, UniProt Q86WV6 137-366)
Sequence (Q86WV6 137-366): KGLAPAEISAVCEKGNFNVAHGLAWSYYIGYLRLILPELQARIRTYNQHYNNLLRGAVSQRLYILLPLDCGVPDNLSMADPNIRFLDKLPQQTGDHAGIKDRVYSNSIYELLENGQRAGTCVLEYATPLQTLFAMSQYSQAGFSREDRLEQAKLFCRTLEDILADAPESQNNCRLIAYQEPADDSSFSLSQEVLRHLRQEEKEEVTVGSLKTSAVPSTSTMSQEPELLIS
Test: MST
quantity: pKd
Answers are plain numbers, as −log10 of the molar value.

QUERY: What value of pKd has been recorded for this entry: MEKPLPL [CTT7 peptide (unlabelled)]
RESULT: 4.97
